# system_tested: T1, extracellular region of human PD-L1 protein (positions 19-238 of SEQ ID NO: 3) (human, UniProt Q9NZQ7 19-238)
# T1 construct: also called Human PD-L1-his; antigen PD-L1
# assay_details: ForteBio Octet (BLI), antibody immobilized, PD-L1 ECD 6.25-200 nM; culture supernatant
value_kind: koff (s⁻¹)

binder	value_units	test_value
murine antibody 7E5 (A9) (antibody, V domains shown, Mouse hybridoma antibody (subclone 7E5-2); Only variable domains printed; also called 7E5-2) VH: QVQLKQSGPGLVAPSQSLSITCTVSGFSLTGYGVNWVRQPPGKGLEWLGKIWGDGSTDYTSALKSRLSISKDNSKSQVFLKVNSLQTDDTARYYCARDVMDYWGQGTSVTVSS VL: QIVLTQSPAIMSASPGEKVTMTCSASSSISYMHWFQQKPGTSPKRWIYDTSKLASGVPARFSGSESGTSYSLTISSMEAEDAATYYCHQRSPYPTFGAGTKLELK	s⁻¹	0.000172
murine antibody 13C9 (A3) (antibody, V domains shown, Mouse hybridoma antibody (subclone 13C9-1), tested as culture supernatant or purified; Only variable domains printed (the VL as printed ends in RA); also called 13C9-1) VH: QVQLKQSGAGLVKPGASVKLSCKASGYIFTEYIIHWVKQRSGQGLEWIGWFYPGSDNIKYNEKFKDKATLTADKSSSTVYMELSRLTSEDSAVYFCARHETGYFFDYWGQGTTLTVSS VL: DIVITQSPAIMSASPGEKVTMTCSASSSVSKMNWYQQKSGTSPKRWIYDTSKLASGVPSRFSGSGSGTSYSLTISSMEAEDAATYYCQQWSSNPLTFGSGTKLELKR	s⁻¹	6.32e-07
murine antibody 10A3 (A11) (antibody, V domains shown, Mouse hybridoma antibody (subclone 10A3-3); Only variable domains printed; also called 10A3-3) VH: QVQLKQSGPGLVAPSQSLSITCTVSGFSLTGYGVNWVRQPPGKGLEWLGKIWGDGITDYNSALKSRLSISKDNSKSQVFLKMNSLQTEDTARYYCARDVMDYWGQGTSVTVSS VL: QIVLTQSPAIMSASPGEKVTMTCSASSSINYMHWFQQKPGTSPKRWIYDTSKLASGVPARFSGSESGTSYSLTISSMEAEDAATYYCHHRSPYPTFGAGTKLELKR	s⁻¹	5.15e-05
